TGT: 5-hydroxytryptamine receptor 2B (Homo sapiens, UniProt P41595)
Sequence (P41595 whole entry): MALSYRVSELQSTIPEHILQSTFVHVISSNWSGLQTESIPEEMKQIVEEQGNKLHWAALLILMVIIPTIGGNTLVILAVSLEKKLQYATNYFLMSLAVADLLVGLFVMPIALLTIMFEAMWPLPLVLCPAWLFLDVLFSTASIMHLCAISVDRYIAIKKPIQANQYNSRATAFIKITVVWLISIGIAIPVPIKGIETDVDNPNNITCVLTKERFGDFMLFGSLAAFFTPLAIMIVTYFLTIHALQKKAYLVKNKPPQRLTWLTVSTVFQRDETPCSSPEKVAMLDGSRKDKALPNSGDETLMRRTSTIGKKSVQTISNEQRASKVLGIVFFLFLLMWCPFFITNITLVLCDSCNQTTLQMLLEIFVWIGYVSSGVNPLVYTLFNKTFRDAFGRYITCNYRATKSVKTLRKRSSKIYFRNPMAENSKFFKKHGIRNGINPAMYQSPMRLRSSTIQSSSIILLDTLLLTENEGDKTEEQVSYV
RUN DESCRIPTION: Antagonist activity at 5-HT2B receptor (unknown origin) expressed in CHO-K1 cells assessed as calcium flux at 1 uM after 60 mins by FLIPR assay
Format: functional, cell-based
Cut-off 50% on inhibition, inclusive. At or above means Satisfied; below means Not satisfied.

# ENTRY SMILES, CATEGORY
data = [
    ("CCN(CC)C(=O)c1cccc(NC2=NC(N)=NC3(CCCCC3)N2)c1", "Not satisfied"),
    ("CCNC(=O)c1cccc(NC2=NC(N)=NC3(CCCCC3)N2)c1", "Satisfied"),
    ("CCOC(=O)c1cccc(NC2=NC(N)=NC3(CCCCC3)N2)c1", "Satisfied"),
    ("CC1(C)N=C(N)N=C(Nc2cccc(Br)c2)N1", "Satisfied"),
    ("CCOC(=O)c1cccc(NC2=NC(N(C)C)=NC3(CCCCC3)N2)c1", "Satisfied"),
    ("CCCC(=O)c1cccc(NC2=NC(N)=NC3(CCCCC3)N2)c1", "Satisfied"),
    ("CN(C)c1ccc(NC2=NC(N)=NC3(CCCCC3)N2)cc1", "Not satisfied"),
    ("NC1=NC2(CCCCC2)NC(Nc2cccc(C(=O)C3CC3)c2)=N1", "Not satisfied"),
    ("COc1cccc(NC2=NC(N)=NC3(CCCCC3)N2)c1", "Satisfied"),
    ("NC1=NC2(CCCCC2)NC(Nc2cccc(Br)c2)=N1", "Satisfied"),
]

* * *

TGT: 5-hydroxytryptamine receptor 1D (Homo sapiens)
Sequence (P28221 whole entry): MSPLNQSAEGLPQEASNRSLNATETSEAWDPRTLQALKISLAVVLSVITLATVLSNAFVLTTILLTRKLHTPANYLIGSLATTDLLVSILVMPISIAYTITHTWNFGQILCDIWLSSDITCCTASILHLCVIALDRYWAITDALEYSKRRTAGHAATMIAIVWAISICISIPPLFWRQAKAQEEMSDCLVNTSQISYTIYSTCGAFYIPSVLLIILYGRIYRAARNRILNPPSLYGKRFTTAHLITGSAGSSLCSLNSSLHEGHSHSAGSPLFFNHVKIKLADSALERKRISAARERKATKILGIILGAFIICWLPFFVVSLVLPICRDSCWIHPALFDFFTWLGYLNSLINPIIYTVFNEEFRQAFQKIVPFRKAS
pKi: −log10 of the molar value.
Listed here: items and their measured pKi.

# ENTRY SMILES, TGT, BOUND OPERATOR, pKi
measured = [
    ("CCOC(=O)c1cccc(NC2=NC(N)=NC3(CCCCC3)N2)c1", "5-hydroxytryptamine receptor 1D (Homo sapiens)", "=", 5.07),
    ("CCNC(=O)c1cccc(NC2=NC(N)=NC3(CCCCC3)N2)c1", "5-hydroxytryptamine receptor 1D (Homo sapiens)", "<", 5.00),
    ("NC1=NC2(CCCCC2)NC(Nc2cccc(Br)c2)=N1", "5-hydroxytryptamine receptor 1D (Homo sapiens)", "=", 5.54),
    ("CC1(C)N=C(N)N=C(Nc2cccc(Br)c2)N1", "5-hydroxytryptamine receptor 1D (Homo sapiens)", "=", 5.58),
]

* * *

TGT: 5-hydroxytryptamine receptor 2B (Homo sapiens)
RUN DESCRIPTION: Antagonist activity at 5-HT2B receptor (unknown origin) expressed in CHO-K1 cells assessed as calcium flux at 1 uM after 60 mins by FLIPR assay
Assay type: functional, cell-based
Recorded inhibition values for a group of compounds are listed next.

# ENTRY SMILES, inhibition, %
measured = [
    ("COc1ccccc1NC1=NC(N)=NC2(CCCCC2)N1", 20.7),
    ("CCOC(=O)c1cccc(N(C)C2=NC(N)=NC3(CCCCC3)N2)c1", 50.4),
    ("CCOC(=O)c1cccc(NC2=NC(NC)=NC3(CCCCC3)N2)c1", 108),
    ("NC1=NC2(CCCCC2)NC(Nc2ccc(Cl)cc2)=N1", 57.1),
    ("CCCOC(=O)c1cccc(NC2=NC(N)=NC3(CCCCC3)N2)c1", 110),
    ("COc1cccc(NC2=NC(N)=NC3(CCCC3)N2)c1", 63),
    ("NC1=NC2(CCCCC2)NC(Nc2cccc(C(=O)O)c2)=N1", 4.4),
    ("Cc1ccccc1NC1=NC(N)=NC2(CCCCC2)N1", 39.9),
]
